Below, each of the molecules is paired with its reported melting point value.

Would you please look over these solved cases?
                                   molecule         result
0     CC(C)(C)OC(=O)NCc1cc(-c2cccnc2)n[nH]1  185 to 187 °C
1  Cc1c(-c2ccc(OCc3ccccc3)cc2)[nH]c2ccc(OCc3ccccc3)cc12  149 to 150 °C
2          CN1CCc2cc(O)c(O)c(Sc3ccsc3)c2CC1  189 to 191 °C
3  COC(=O)c1ccc(C(=O)C=C(c2cc(Cl)cc(C(F)(F)F)c2)C(F)(F)F)c2ccccc12  90 to 90.5 °C
4         CC(=O)c1ccc(S(=O)(=O)Nc2nccs2)cc1  194 to 195 °C

query: Recorded melting point of CC(C)C(NC(=O)c1ccccn1)C(=O)NC(Cc1ccccc1)C(O)C(O)C(Cc1ccccc1)NC(=O)C(NC(=O)c1ccccn1)C(C)C (centres undefined) , please.
result: 167 to 171 °C

query: // melting point lookup, key: CCOC(=O)c1cn(C2COC2)c2c(F)c(F)cc(F)c2c1=O
result: 169 to 171 °C

query: # input molecule: CCS(=O)(=O)N(C)C1CCN(c2ccccc2)c2ccccc21 (centres undefined) ; wanted: its melting point
result: 72 °C

query: Entry C=Cc1ccc(CSCCC(=O)O)cc1 : reported melting point = ?
result: 77 to 78 °C

Data origin, for the record: a melting point compilation (Tetko et al.; mined from patent text by program, amines drawn as free bases though some values may be those of a salt)
